Form field: IC50 (one value per entry).
system: SKVLB (Ovarian; multidrug resistant); experiment: In vitro cytotoxicity, microculture tetrazolium (MTT) assay, SKVLB; format: cell-based, Human; conditions: Homo sapiens; SKVLB multidrug resistant ovarian; 48 h with compound, further 48 h, MTT; Table 1
Counter-ions that a name gives are not always drawn.

# compound, subject.of.test, operator.symbol, IC50 / µM
data = [
    ("COC(=O)[C@@]1(C)CC2=C(C(=O)c3ccccc3C2=O)[C@H](O[C@H]2C[C@H](NC(=O)C(F)(F)F)[C@H](O)[C@H](C)O2)O1", "SKVLB (Ovarian; multidrug resistant)", "=", 12.4),
    ("COC(=O)C1=CC2=C(C(=O)c3ccccc3C2=O)C(OC)O1 (centres unmarked)", "SKVLB (Ovarian; multidrug resistant)", "=", 9.12),
    ("CC[C@H]1CC2=C(C(=O)c3ccccc3C2=O)[C@H](O[C@H]2C[C@H](N)[C@H](O)[C@H](C)O2)O1 [BCH2021, hydrochloride]", "SKVLB (Ovarian; multidrug resistant)", "=", 46.4),
    ("CO[C@H]1C[C@H](O[C@H]2O[C@H](C(C)=O)C[C@]34O[C@]23C(=O)c2ccccc2C4=O)O[C@@H](C)[C@H]1OS(C)(=O)=O", "SKVLB (Ovarian; multidrug resistant)", "=", 9.96),
    ("C=C(C)[C@H]1CC2=C(C(=O)c3ccccc3C2=O)[C@H](OC)O1 (relative stereo)", "SKVLB (Ovarian; multidrug resistant)", "=", 9.93),
    ("CC(=O)[C@H]1CC2=C(C(=O)c3ccc(O)cc3C2=O)[C@H](O[C@H]2C[C@H](NC(=O)C(F)(F)F)[C@H](O)[C@H](C)O2)O1", "SKVLB (Ovarian; multidrug resistant)", "=", 8.68),
    ("CO[C@@H]1O[C@@H](C(=O)Nc2ccccc2)CC2=C1C(=O)c1ccccc1C2=O (relative stereo)", "SKVLB (Ovarian; multidrug resistant)", "=", 10),
    ("CC[C@H]1CC2=C(C(=O)c3ccccc3C2=O)[C@H](O[C@H]2C[C@H](NC(=O)C(F)(F)F)[C@H](O)[C@H](C)O2)O1", "SKVLB (Ovarian; multidrug resistant)", "=", 25.9),
    ("CC(C)C(=O)[C@@H]1CC2=C(C(=O)c3ccccc3C2=O)[C@@H](O[C@H]2C[C@H](NC(=O)C(F)(F)F)[C@H](O)[C@H](C)O2)O1", "SKVLB (Ovarian; multidrug resistant)", "=", 1.7),
    ("CC(=O)[C@@H]1CC2=C(C(=O)c3ccccc3C2=O)[C@@H](O[C@@H]2O[C@@H](C)[C@@H](O)[C@@H](NC(=O)C(F)(F)F)C2I)O1 (some centres unmarked)", "SKVLB (Ovarian; multidrug resistant)", "=", 3.2),
    ("CC(=O)C1CC2=C(C(=O)c3ccccc3C2=O)C(OCC2CCCNC2)O1 (mixture of isomers) [BCH2061, hydrochloride salt]", "SKVLB (Ovarian; multidrug resistant)", "=", 0.141),
    ("CC(=O)C1CC2=C(C(=O)c3ccccc3C2=O)C(O)O1 (centres unmarked)", "SKVLB (Ovarian; multidrug resistant)", ">", 100),
    ("CC(=O)[C@@H]1CC2=C(C(=O)c3ccccc3C2=O)[C@@H](O[C@@H]2O[C@@H](C)[C@@H](O)[C@@H](O)[C@H]2I)O1", "SKVLB (Ovarian; multidrug resistant)", "=", 1.17),
    ("COC1OC(C(=O)NCCN2CCOCC2)=CC2=C1C(=O)c1ccccc1C2=O (centres unmarked)", "SKVLB (Ovarian; multidrug resistant)", "=", 0.394),
    ("CC(=O)C1CC2=C(CO1)C(=O)c1ccc(O)cc1C2=O (centres unmarked)", "SKVLB (Ovarian; multidrug resistant)", ">", 100),
    ("CC(=O)[C@@H]1CC2=C(C(=O)c3ccc(O)cc3C2=O)[C@@H](O[C@H]2C[C@H](NC(=O)C(F)(F)F)[C@H](O)[C@H](C)O2)O1", "SKVLB (Ovarian; multidrug resistant)", "=", 8.48),
    ("CC[C@H]1CO[C@H](O[C@H]2C[C@H](NC(=O)C(F)(F)F)[C@H](O)[C@H](C)O2)C2=C1C(=O)c1ccccc1C2=O", "SKVLB (Ovarian; multidrug resistant)", "=", 32),
    ("CC(=O)[C@H]1CC2=C(C(=O)c3ccccc3C2=O)[C@H](O[C@H]2C[C@H](NC(=O)C(F)(F)F)[C@H](O)[C@H](C)O2)S1", "SKVLB (Ovarian; multidrug resistant)", "=", 4.1),
]

----------
test system: SKVLB (Ovarian; multidrug resistant); assay: In vitro cytotoxicity, microculture tetrazolium (MTT) assay, SKVLB; assay type: cell-based, Human; details: Homo sapiens; SKVLB multidrug resistant ovarian; 48 h with compound, further 48 h, MTT; Table 1
Counter-ions that a name gives are not always drawn.

# compound, IC50, µM
records = [
    ("CC(=O)C1CC2=C(CO1)C(=O)c1ccccc1C2=O (centres unmarked)", 92.9),
    ("COC(=O)C1(C(=O)OC)CC2=C(CO1)C(=O)c1ccccc1C2=O", 28.9),
    ("CC(C)[C@@H]1CC2=C(C(=O)c3ccccc3C2=O)[C@@H](O[C@H]2C[C@H](NC(=O)C(F)(F)F)[C@H](O)[C@H](C)O2)O1", 21.2),
    ("CO[C@@H]1O[C@@H](C(=O)O)CC2=C1C(=O)c1ccccc1C2=O (relative stereo)", 15),
    ("CC(=O)[C@@]1(C)CC2=C(C(=O)c3ccccc3C2=O)[C@H](O[C@H]2C[C@H](NC(=O)C(F)(F)F)[C@H](O)[C@H](C)O2)O1", 5.6),
    ("CC(=O)C1CC2=C(C(=O)c3ccccc3C2=O)C(OCC2CCCN(C(=O)OC(C)(C)C)C2)O1 (mixture of isomers)", 2.5),
    ("CC(C)OC(=O)[C@H]1CC2=C(C(=O)c3ccccc3C2=O)[C@H](O[C@H]2C[C@H](NC(=O)C(F)(F)F)[C@H](O)[C@H](C)O2)O1", 1.3),
    ("CC[C@H]1CC2=C(C(=O)c3ccccc3C2=O)[C@H](NC(C)=O)O1 (relative stereo)", 29),
    ("COC(=O)[C@]1(C)CC2=C(C(=O)c3ccccc3C2=O)[C@H](O[C@H]2C[C@H](NC(=O)C(F)(F)F)[C@H](O)[C@H](C)O2)O1", 19),
    ("CCCC1OC(C(=O)NCCCN(C)C)=CC2=C1C(=O)c1ccccc1C2=O (centres unmarked)", 0.98),
    ("CC(=O)[C@]1(C)CC2=C(C(=O)c3ccccc3C2=O)[C@H](O[C@H]2C[C@H](NC(=O)C(F)(F)F)[C@H](O)[C@H](C)O2)O1", 36),
    ("COC(=O)[C@@H](N)COC1OC(C(C)=O)CC2=C1C(=O)c1ccccc1C2=O (mixture of isomers) [BCH1654, hydrochloride]", 3.73),
    ("COC(=O)[C@@H]1CC2=C(C(=O)c3ccccc3C2=O)[C@@H](O[C@H]2C[C@H](NC(=O)C(F)(F)F)[C@H](O)[C@H](C)O2)O1", 5.8),
    ("CC(=O)O[C@H]1[C@@H](I)[C@H](O[C@@H]2O[C@@H](C(C)=O)CC3=C2C(=O)c2ccccc2C3=O)O[C@@H](C)[C@H]1OC(C)=O", 0.0893),
]

----------
Tested on: SKOV3 (Ovarian adenocarcinoma)
Assay: In vitro cytotoxicity, microculture tetrazolium (MTT) assay, SKOV3
Format: cell-based, Human
Settings: Homo sapiens, SK-OV-3; SKOV3 ovarian adenocarcinoma; 48 h with compound, further 48 h, MTT; Table 1
Method: The microculture tetrazolium assay was used to test in vitro cytotoxicity. This assay is described in Plumb, J. A. et al., 1989 Cancer Research 49, 4435-4440, which is herein incorporated by reference. The cytotoxicity of compounds towards tumor cells is measured in vitro using the assay. […]

# compound, unit.text, operator.symbol, IC50
rows = [
    ("CO[C@H]1C[C@H](O[C@H]2O[C@H](C(C)=O)C[C@]34O[C@]23C(=O)c2ccccc2C4=O)O[C@@H](C)[C@H]1OS(C)(=O)=O [BCH2141]", "µM", "=", 8.12),
    ("CC(=O)O[C@H]1[C@@H](I)[C@H](O[C@H]2O[C@H](C(C)=O)CC3=C2C(=O)c2ccccc2C3=O)O[C@@H](C)[C@H]1OC(C)=O [BCH1666]", "µM", "=", 0.272),
    ("COC(=O)[C@@H]1CC2=C(C(=O)c3ccccc3C2=O)[C@@H](O[C@H]2C[C@H](NC(=O)C(F)(F)F)[C@H](O)[C@H](C)O2)O1 [BCH2128]", "µM", "=", 1.7),
    ("COCC1(COC)CC2=C(C(=O)c3ccccc3C2=O)[C@H](O[C@H]2C[C@H](NC(=O)C(F)(F)F)[C@H](O)[C@H](C)O2)O1 [BCH1697]", "µM", "=", 3.7),
    ("C=C(C)[C@H]1CC2=C(C(=O)c3ccccc3C2=O)[C@H](OC)O1 (relative stereo) [BCH2148]", "µM", "=", 12.6),
    ("CC(=O)C1CC2=C(CO1)C(=O)c1ccc(O)cc1C2=O (centres unmarked) [BCH1129]", "µM", "=", 73.3),
    ("CC(=O)[C@@H]1CC2=C(C(=O)c3ccc(O)cc3C2=O)[C@@H](O[C@H]2C[C@H](NC(=O)C(F)(F)F)[C@H](O)[C@H](C)O2)O1 [BCH1181]", "µM", "=", 2.26),
    ("COC(=O)C1(C(=O)OC)CC2=C(CO1)C(=O)c1ccccc1C2=O [BCH1665]", "µM", "=", 25.4),
    ("COC(=O)[C@H](CC(C)C)NC(=O)[C@H](CO[C@H]1O[C@H](C(C)=O)CC2=C1C(=O)c1ccccc1C2=O)NC(=O)OC(C)(C)C [BCH1998]", "µM", "=", 0.125),
    ("COC(=O)C1=CC2=C(CO1)C(=O)c1ccccc1C2=O [BCH2830]", "µM", "=", 7.12),
    ("CC(=O)C1CC2=C(C(=O)c3ccccc3C2=O)C(O)O1 (centres unmarked) [BCH1148]", "µM", ">", 100),
    ("CC(=O)C1CC2=C(C(=O)c3ccccc3C2=O)C(OCC2CCCN(C(=O)OC(C)(C)C)C2)O1 (mixture of isomers) [BCH2060]", "µM", "=", 1.14),
    ("CO[C@H]1C[C@H](O[C@H]2O[C@H](C(C)=O)CC3=C2C(=O)c2ccccc2C3=O)O[C@@H](C)[C@H]1OS(C)(=O)=O [BCH2070]", "µM", "=", 0.0084),
]

meta.source: patent US5606037A
